Molecular target: cruzain (Trypanosoma cruzi, UniProt P25779);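 further: at 5 µM compound concentration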
Sequence (P25779 123-337 limits assumed): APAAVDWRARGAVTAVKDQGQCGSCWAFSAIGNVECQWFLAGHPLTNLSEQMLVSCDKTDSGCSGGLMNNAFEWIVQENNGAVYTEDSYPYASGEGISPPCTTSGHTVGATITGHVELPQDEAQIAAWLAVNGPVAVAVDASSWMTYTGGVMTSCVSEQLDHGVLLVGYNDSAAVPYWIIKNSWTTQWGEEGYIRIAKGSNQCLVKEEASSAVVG
Test: biochemical
Conditions: 0’ (pre-incubation time); sheet "Screening results"

compound | unit name | Cruzain 0’ Inhibition
c1ccc(Oc2ccc(-c3cc(CN4CCOCC4)[nH]n3)cc2)cc1 | % | -1.3
c1ccc(Oc2ccc(-c3cc(N4CCOCC4)n[nH]3)cc2)cc1 | % | 1.3
Cc1cccc(C(=O)Nc2ccnc(N(C)C3CCN(CC(C)C)CC3)c2)c1 | % | 9
CCC(Sc1nc2ccccc2o1)C(=O)Nc1nnc(C)s1 (centres unmarked) | % | 0.2
CC1(C)Cc2c(c(N3CCOCC3)nc3snc(Br)c23)CO1 | % | 8
CN1CCCN(C(c2ccccc2)c2ccc(Cl)cc2)CC1 (centres unmarked) | % | 3.6
CN(C)CCNC(=O)N1CCCN(c2ncnc3cc(-c4ccccc4)sc23)CC1 | % | -3.2
Cc1cc(NC(=O)c2ccc(Oc3ccc(Cl)cc3O)o2)no1 | % | -9
O=C(C1CCN(c2nnc(-n3cccc3)s2)CC1)N1CCC(Cc2ccccc2)CC1 | % | 0.9
CC1=Nc2ccc(Cl)cc2C(c2ccccc2)N1CCNC(=O)CN(C)C (centres unmarked) | % | -0.5
COc1ccc(C(=N)N)cc1-c1cn(-c2ccc(C(=N)N)cc2)nn1 | % | 6
CCOC(=O)c1c(NC(=O)c2c(F)c(F)c(F)c(F)c2F)sc(C(N)=O)c1C | % | 0.7
CNc1cc(C)nc(C2CN(C(=O)c3n[nH]c4ccccc34)CCO2)c1 (centres unmarked) | % | -1.4
COc1cc(Br)cc2cc(C(=O)Nc3cccc(C(F)(F)F)c3)c(=O)oc12 | % | -4.4
COc1ccc(-c2cncc3ccc(C(=O)NCCCn4ccnc4)nc23)cc1 | % | -2.2
COc1cc(NC(=O)Cc2nn(C)c(=O)c3ccccc23)ccc1Cl | % | 0
COc1ccc(Cn2cnc3c(-c4ccco4)nc(Cl)nc32)cc1 | % | 6
CCOc1ccccc1NC(C)C(=O)Nc1cc(C(F)(F)F)ccc1N1CCOCC1 (centres unmarked) | % | -3.4
Nc1nccc2ccc(-c3ccc4nccn4c3)cc12 | % | 11
C[C@H](c1ccc2c(c1)CCCC2)N(C)c1ncc2c(N)nc(N)nc2n1 | % | -2.7
O=C(Nc1cccc(Cl)c1)c1cnc(N2CCN(c3ccncc3)CC2)c(Cl)c1 | % | 17
Cc1nc(-c2ccccn2)nc(NCCc2ccc(S(C)(=O)=O)cc2)c1Cl | % | -6.4
Cc1cc(NCC(C)C)c2[nH]nc(-c3ccccc3)c2n1 | % | 18
O=C(Nc1cccc(-c2ccc(NCCCN3CCCC3)nc2)c1)c1ccccc1 | % | 8
O=C(NCc1cc(Cl)cc(Cl)c1)c1c(C(F)(F)F)nc2ccccn12 | % | 3.3
OCc1ccc(-c2cncc(Nc3cccc(Cl)c3)c2)cc1 | % | 0
C[C@H]1CS(=O)(=O)CCN1/N=C/c1ccc([N+](=O)[O-])o1 | % | 7
COc1ccc(C2(C(=O)Nc3ccc(Br)cc3)CCCC2)cc1 | % | 3.8
CCc1ccc(S(=O)(=O)Nc2cc(CN3CCN(CCC(C)C)CC3)ccc2C)cc1 | % | -1.8
COc1ccc(-c2cnc3ccc(N4CCCC4)nn23)cc1OC | % | -3.2
CCCn1c(NC(=O)c2ccc3ccccc3n2)nc2ccccc21 | % | -3.4
COc1cccc(OC)c1C(=O)Nc1ccc(Cl)c(-c2nc3ccccc3s2)c1 | % | 8
Nc1nc2cc(-c3cncc(Oc4ccc(F)cc4)c3)ccc2[nH]1 | % | 17
NC(=O)c1cc(-c2ccsc2)ccc1OCCOc1ccccc1 | % | 2.4
Cc1cc(Nc2ccc(C(F)(F)F)cc2)n2ccnc2n1 | % | -0.9
O=C1O[C@@H](CO)CN1c1cc(F)c(C2=CCN(Cc3ccccc3)CC2)c(F)c1 | % | -2
O=C(Nc1ccc(C(F)(F)F)c(C(F)(F)F)c1)c1cc(Cl)ccc1O | % | -0.3
O=C(NC1CC1)c1ccc(CSCc2ccccc2Cl)o1 | % | 0.3
